Each entry below carries its reported melting point.

- COc1nc(OC)c(CN2C[C@@H]3CN(C(=O)N4CCOCC4)CCN3[C@H](C(c3ccccc3)c3ccccc3)C2)c(OC)n1.Cl.Cl: 139 to 143 °C

INPUT: Dear colleague, I am looking for the recorded melting point of the following compound: COc1nc(C)nc(OC)c1CN1C[C@@H]2CN(C(=O)CO)CCN2[C@H](C(c2ccccc2)c2ccccc2)C1.Cl.Cl
OUTPUT: 129 to 132 °C

INPUT: Try COc1nc(C)c(CN2C[C@@H]3CN(C(=O)CO)CCN3[C@H](C(c3ccccc3)c3ccccc3)C2)c(OC)n1.Cl.Cl next.
OUTPUT: 174 to 177 °C

INPUT: Try COc1nc(Cl)c(CN2C[C@@H]3CN(C(=O)CO)CCN3[C@H](C(c3ccccc3)c3ccccc3)C2)c(OC)n1.Cl.Cl next.
OUTPUT: 98 to 101 °C (dec.)

---

Each entry below carries its reported melting point.

Here is how some molecules turned out for melting point.
* COc1nc(OC)c(CN2C[C@@H]3CN(C(=O)CO)CCN3[C@H](C(c3ccccc3)c3ccccc3)C2)c(OCC(F)F)n1.Cl.Cl | 143 to 146 °C
* COc1nc(OC)c(CN2C[C@@H]3CN(C(=O)CO)CCN3[C@H](C(c3ccccc3)c3ccccc3)C2)c(OC2CCC2)n1.Cl.Cl | 141 to 145 °C
* COc1nc(OC)c(CN2C[C@@H]3CN(C(=O)c4cccnc4)CCN3[C@H](C(c3ccccc3)c3ccccc3)C2)c(OC(C)C)n1.Cl.Cl.Cl | 143 to 147 °C
* COc1nc(OC)c(CN2C[C@@H]3CN(C(=O)CO)CCN3[C@H](C(c3ccccc3)c3ccccc3)C2)c(OC(C)C)n1.Cl.Cl | 145 to 148 °C (dec.)

INPUT: Dear colleague, I am looking for the recorded melting point of the following molecule: CCOc1nc(OC)nc(OC)c1CN1C[C@@H]2CN(C(=O)CO)CCN2[C@H](C(c2ccccc2)c2ccccc2)C1.Cl.Cl
OUTPUT: 150 to 152 °C (dec.)

INPUT: Try COc1nc(Cl)nc(OC)c1CN1C[C@@H]2CN(C(=O)CO)CCN2[C@H](C(c2ccccc2)c2ccccc2)C1.Cl.Cl next.
OUTPUT: 150 to 155 °C (dec.)

INPUT: Try COc1nc(OC)c(CN2C[C@@H]3CN(C(=O)CO)CCN3[C@H](C(c3ccccc3)c3ccccc3)C2)c(OC)n1.Cl.Cl next.
OUTPUT: 155 to 158 °C (dec.)

All figures here come from patent US20050171350A1.
